System: U251 CNS
Measurement protocol: NCI-60 one-dose screen, 48 h
Condition notes: 10 µM unless noted
The panel holds about 83,000 compounds, 20% with a hit somewhere; the sample as a whole holds those more often. Calls of active or inactive are those of the source. How the source made its calls: active means growth percent below 10; inactive means the rest.
Possible outcomes: TRUE for active, FALSE for inactive

| Compound | Assigned category |
| --- | --- |
| CNC(=O)c1cc(Oc2cccc3nc(NC(=O)Nc4cc(C(F)(F)F)cc(C(F)(F)F)c4)ccc23)ccn1 | TRUE |
| CC1(C)C(=O)/C(=C\c2cccnc2)C[C@]2(C)[C@H]3CC[C@@H]4[C@H]5[C@H](C(=O)/C=C/c6cccnc6)CC[C@]5(C(=O)O)CC[C@@]4(C)[C@]3(C)CC[C@@H]12 | TRUE |
| C#CCOc1ccc(C2=NN(CC3CC3)C3N=C(Cl)c4ncn(CC5CC5)c4N23)cc1OCC#C (centres undefined) | FALSE |
| Clc1ccc(/C=N/Nc2nc3ccccc3s2)c(Cl)c1 | FALSE |
| Cc1cc(C)c(-c2cc(O)c(-c3c(C)cc(C)cc3C)cc2O)c(C)c1 | FALSE |
| C=CCc1nc2ccccc2s1 | FALSE |
| [2H]C1([2H])CCN(C(=O)C2CC2)c2cc(NS(=O)(=O)c3ccc(-c4cccc(C(N)=O)c4)cc3)ccc21 | FALSE |
| CC(C)(C)c1cc(C(=O)Nc2ccc(C(=O)NCCN)cc2)cc(C(C)(C)C)c1 | TRUE |
| O=c1cc(-c2ccccc2)oc2cc(OCc3cn(Cc4ccc(F)cc4)nn3)cc(O)c12 | TRUE |
| CCn1cc(-c2[nH]c(=S)ncc2-c2ccc(Cl)cc2)c(-c2ccc(Br)cc2)n1 | FALSE |
| C=C(C)[C@@H]1CC[C@]2(C(N)=O)CC[C@]3(C)[C@H](CC[C@@H]4[C@@]5(C)C/C(=C/c6cccnc6)C(=O)C(C)(C)[C@@H]5CC[C@]43C)[C@@H]12 | TRUE |
| CCn1cc(-c2ccnc(NCCNS(=O)(=O)c3ccc(Br)cc3)c2)c(-c2cccc(OC)c2)n1 | FALSE |
| COc1cc(NN=C(c2ccc(O)cc2)c2ccc(O)cc2)c([N+](=O)[O-])cc1[N+](=O)[O-] | FALSE |
| CCCCC(CCCCCC(CCCC)C1NC(C)Cc2cc(OC)c(OC)cc21)C1NC(C)Cc2cc(OC)c(OC)cc21 (centres undefined) | TRUE |
| CC1(C)CC[C@]2(C(N)=O)CC[C@]3(C)C(=CC[C@@H]4[C@@]5(C)C/C(=C/c6cccnc6)C(=O)C(C)(C)[C@@H]5CC[C@]43C)[C@@H]2C1 | TRUE |
| Nc1nc(Nc2ccccc2)c2ncn(Cc3cc4c(cc3Br)OCO4)c2n1 | TRUE |
| Cc1cnc(N)nc1OCC(C)(C)CNC(=O)c1cccc(-c2ccc(S(=O)(=O)Nc3ccc4c(c3)N(C(=O)C3CC3)CCC4)cc2)c1 | FALSE |
| CCCCN(CC)CC(CC)Nc1cc(OC)cc2cccnc12 (centres undefined) | FALSE |
| Nc1nc(Cl)c2ncn(Cc3cc4c(cc3I)OCO4)c2n1 | FALSE |
| Cc1cccc([N+](=O)[O-])c1I | FALSE |
| C[C@@H]1C[C@H]2C(=O)O[C@@H](C)[C@H](NC(=O)[C@H](Cc3cc(F)cc(F)c3)NC(=O)Nc3ccc(Cl)cc3F)C(=O)N3C[C@H](O)C[C@H]3C(=O)N3CCN(C)C[C@H]3C(=O)N[C@@H](C)C(=O)N2C1 | FALSE |
| O=C(NCCCCCCCNC(=O)OCc1ccc2c(Cl)cc(Cl)c(O)c2n1)OCc1ccc2c(Cl)cc(Cl)c(O)c2n1 | TRUE |
| COc1c(C(C)=O)c(OCCCCOc2c(C(C)=O)c(OC)c3ccoc3c2OC)c(OC)c2occc12 | FALSE |
| CCOc1ccccc1/C=N\Nc1ccc(S(=O)(=O)c2ccc(N/N=C/c3ccccc3OCC)cc2)cc1 | FALSE |
| COc1ccccc1S(=O)Nc1ccccc1 (centres undefined) | FALSE |
| CCCCC(CC)COC(=O)C[N+](C)(C)CCOC(c1ccccc1)c1ccccc1 (centres undefined) | FALSE |
| O=C(O)c1cn(C2CC2)c2cc(N3CCN(Cc4c(O)ccc5ccccc45)CC3)c(F)cc2c1=O | FALSE |
| O=C(NCCCNC(=O)OCc1ccc2cccc(O)c2n1)OCc1ccc2cccc(O)c2n1 | FALSE |
| Cc1cccc(C[C@H](NC(=O)Nc2ccc(Cl)cc2F)C(=O)N[C@@H]2C(=O)N3C[C@H](O)C[C@H]3C(=O)N3CCCC[C@H]3C(=O)N[C@@H](C)C(=O)N3C[C@H](C)C[C@H]3C(=O)O[C@H]2C)c1 | FALSE |
| CCN(CC)CCCOc1ccc2c(c1)O/C(=C\c1cccc(OC)c1)C2=O | FALSE |
| O=C(OCc1ccc2c(Cl)cc(Cl)c(O)c2n1)N1CCN(C(=O)c2cc3cc(F)ccc3[nH]2)CC1 | TRUE |
| N=C(N)c1ccc(-c2ccc(-c3ccc(-c4cccs4)s3)s2)cc1F | FALSE |
| CCCCCCCCCCCCCCCCCCNC(=S)N/N=C/c1ccc(OC)c(OC)c1 | FALSE |
| N#C/C(=C(/O)CCCO)c1nc2ccccc2c(=O)[nH]1 | FALSE |

Cited source for all entries: PubChem BioAssay (NCI)
